biological target: aldosterone receptor (Rattus norvegicus, UniProt P22199); construct: centrifuged at 105,000 g for 30 minutes, and then a supernatant was collected as a renal soluble fraction; from tissue; host or cells: rat kidney (adrenalectomized rat), 105,000 g supernatant (cytosol); assay: Binding inhibition test for aldosterone receptor ([3H]aldosterone, rat renal soluble fraction); conditions: [3H]aldosterone 2 nM, rat renal soluble fraction, in the presence of 2 μM RU-486, 4° C. about 18 hours; read-out: MR IC50
Sequence (P22199 whole entry): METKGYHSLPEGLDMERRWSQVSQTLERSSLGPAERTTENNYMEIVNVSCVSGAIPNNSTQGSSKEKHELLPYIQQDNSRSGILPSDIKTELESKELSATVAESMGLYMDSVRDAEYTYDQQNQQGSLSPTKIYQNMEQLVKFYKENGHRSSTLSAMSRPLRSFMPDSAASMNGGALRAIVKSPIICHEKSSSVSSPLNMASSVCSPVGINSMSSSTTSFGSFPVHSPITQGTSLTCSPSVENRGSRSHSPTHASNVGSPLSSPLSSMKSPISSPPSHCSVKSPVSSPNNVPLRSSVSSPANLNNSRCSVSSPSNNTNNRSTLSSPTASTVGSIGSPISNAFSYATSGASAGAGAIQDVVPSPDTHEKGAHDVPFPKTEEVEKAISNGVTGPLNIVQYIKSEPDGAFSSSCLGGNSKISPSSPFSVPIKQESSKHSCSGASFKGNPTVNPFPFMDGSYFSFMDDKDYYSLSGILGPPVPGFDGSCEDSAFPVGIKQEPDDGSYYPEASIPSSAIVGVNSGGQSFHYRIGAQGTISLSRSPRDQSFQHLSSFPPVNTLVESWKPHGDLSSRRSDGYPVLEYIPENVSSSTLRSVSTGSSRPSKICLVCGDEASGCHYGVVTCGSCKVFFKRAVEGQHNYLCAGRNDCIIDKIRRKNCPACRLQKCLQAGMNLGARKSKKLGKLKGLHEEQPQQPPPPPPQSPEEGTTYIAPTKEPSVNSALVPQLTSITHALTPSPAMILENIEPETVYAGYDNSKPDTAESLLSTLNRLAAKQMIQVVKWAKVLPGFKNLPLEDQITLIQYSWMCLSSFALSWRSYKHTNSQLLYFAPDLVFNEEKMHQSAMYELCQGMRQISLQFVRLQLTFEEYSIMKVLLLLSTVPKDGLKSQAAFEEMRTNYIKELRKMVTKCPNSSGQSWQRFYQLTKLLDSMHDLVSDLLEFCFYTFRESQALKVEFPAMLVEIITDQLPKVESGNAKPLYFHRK
pIC50: −log10 of the molar value.
pIC50 listing for selected compounds.
OBSERVED PROPERTY: pIC50

> print(dat)
                                   compound                              study.system  reported.value
1  COc1cc(NC(=O)c2ccc(-c3ccccc3C(F)(F)F)c(COCC3CCCN(C)C3)c2)ccc1S(N)(=O)=O (stereo not shown)  aldosterone receptor (Rattus norvegicus, UniProt P22199)            5.70
2  COc1cc(C(=O)Nc2ccc(-c3ccccc3C(F)(F)F)c(Cc3nccn3C)c2)ccc1S(N)(=O)=O  aldosterone receptor (Rattus norvegicus, UniProt P22199)            6.21
3  COc1cc(NC(=O)c2ccc(-c3ncccc3C(F)(F)F)c(C)c2)ccc1S(N)(=O)=O  aldosterone receptor (Rattus norvegicus, UniProt P22199)            5.39
4  CCCOc1ccc(-c2ccc(NC(=O)c3ccc(S(N)(=O)=O)c(OC)c3)cc2CO)c(C(F)(F)F)c1  aldosterone receptor (Rattus norvegicus, UniProt P22199)            5.66
